system: SK-N-MC cell line (human brain neuroepithelioma, high S phase); experiment: Cancer cell uptake, SK-N-MC; settings: (ii) SK-N-MC
A collection of compounds and their measured Cell Uptake
I only need the number, thanks.

Here is how some compounds turned out for Cell Uptake.
Cc1cn([C@H]2CC(F)[C@@H](CO)O2)c(=O)n(CCF)c1=O (some centres unmarked) [Ta-4F] = 0.063
Cc1cn([C@@H]2O[C@H](CO)C(O)C2OCCF)c(=O)[nH]c1=O (some centres unmarked) [Ta-7] = 0.083
Cc1cn([C@@H]2O[C@H](CO)C(O)C2O)c(=O)n(CCF)c1=O (some centres unmarked) [Ta-8] = 0.097
Cc1cn([C@H]2CC(O)[C@@H](CO)O2)c(=O)n(Cc2cn(CCF)nn2)c1=O (some centres unmarked) [Ta-1] = 0.081

Let us move to another entry and its Cell Uptake.
Value of measured Cell Uptake for the entry Cc1cn([C@H]2CC(F)[C@@H](CO)O2)c(=O)n(CCF)c1=O (some centres unmarked) [Ta-6] : 0.007

---

biological target: human thymidine kinase 1 (hTK1) (Homo sapiens); test: hTK-1 kinase phosphorylation, metabolites monitored by LC/MS-SIM; conditions: in vitro
Sequence (P04183 whole entry): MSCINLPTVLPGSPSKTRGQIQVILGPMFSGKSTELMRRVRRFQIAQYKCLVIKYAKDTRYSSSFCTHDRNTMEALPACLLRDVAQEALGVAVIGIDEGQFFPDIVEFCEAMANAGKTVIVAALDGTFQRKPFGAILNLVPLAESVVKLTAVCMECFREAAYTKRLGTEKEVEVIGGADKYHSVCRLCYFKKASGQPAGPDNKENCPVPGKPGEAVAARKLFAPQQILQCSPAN
Value type: Pi % (phosphorylation percentage) (%)
Write the value in % as a bare number.

Here is how some compounds turned out for Pi % (phosphorylation percentage).
Cc1cn([C@H]2CC(O)[C@@H](CO)O2)c(=O)n(Cc2cn([C@H](C(=O)NCc3ccccc3)C(C)C)nn2)c1=O (stereo partly shown) = 71.5
O=c1[nH]c(=O)n([C@H]2CC(O)[C@@H](CO)O2)cc1-c1cn(CCF)nn1 (stereo partly shown) = 0
Cc1cn([C@@H]2O[C@H](CO)C(O)C2F)c(=O)n(CCF)c1=O (stereo partly shown) = 1.4
Cc1cn([C@H]2CC(F)[C@@H](CO)O2)c(=O)n(CCF)c1=O (stereo partly shown) [Ta-6] = 4.5
Cc1cn([C@H]2CC(n3cc(CF)nn3)[C@@H](CO)O2)c(=O)[nH]c1=O (stereo partly shown) = 6.1
Cc1cn([C@@H]2O[C@H](CO)C(O)C2O)c(=O)n(CCF)c1=O (stereo partly shown) [Ta-8] = 18.2

The reported human thymidine kinase 1 (hTK1) (Homo sapiens) Pi % (phosphorylation percentage) of Cc1cn([C@H]2CC(O)[C@@H](CO)O2)c(=O)n(Cc2cn([C@H](C(=O)NCc3cc(F)ccn3)C(C)C)nn2)c1=O (stereo partly shown) is 25.5

The reported human thymidine kinase 1 (hTK1) (Homo sapiens) Pi % (phosphorylation percentage) of Cc1cn([C@H]2CC(F)[C@@H](CO)O2)c(=O)[nH]c1=O (stereo partly shown) [FLT, 3′-[^18F]fluoro-3′-deoxythymidine, reference compound] is 31

The reported human thymidine kinase 1 (hTK1) (Homo sapiens) Pi % (phosphorylation percentage) of Cc1cn([C@@H]2O[C@H](CO)C(O)C2O)c(=O)n(CCF)c1=O (stereo partly shown) [Ta-11] is 9.8

The reported human thymidine kinase 1 (hTK1) (Homo sapiens) Pi % (phosphorylation percentage) of Cc1cn([C@H]2CC(F)[C@@H](CO)O2)c(=O)n(Cc2cn(CCF)nn2)c1=O (stereo partly shown) is 4.5

The reported human thymidine kinase 1 (hTK1) (Homo sapiens) Pi % (phosphorylation percentage) of Cc1cn([C@@H]2O[C@H](CO)C(O)C2F)c(=O)[nH]c1=O (stereo partly shown) [FMAU, reference compound] is 80

The reported human thymidine kinase 1 (hTK1) (Homo sapiens) Pi % (phosphorylation percentage) of Cc1cn([C@H]2CC(O)[C@@H](CO)O2)c(=O)n(CCn2cc(CF)nn2)c1=O (stereo partly shown) is 10.2

The reported human thymidine kinase 1 (hTK1) (Homo sapiens) Pi % (phosphorylation percentage) of Cc1cn([C@H]2CC(O)[C@@H](CO)O2)c(=O)n(CCF)c1=O (stereo partly shown) [Ta-4, 3-N-(2′-[^18F]fluoroethyl)-thymidine] is 77.4

The reported human thymidine kinase 1 (hTK1) (Homo sapiens) Pi % (phosphorylation percentage) of Cc1cn([C@H]2CC(O)[C@@H](CO)O2)c(=O)n(Cc2cn(Cc3cc(F)ccn3)nn2)c1=O (stereo partly shown) is 39.2

The reported human thymidine kinase 1 (hTK1) (Homo sapiens) Pi % (phosphorylation percentage) of Cc1cn([C@H]2CC(F)[C@@H](CO)O2)c(=O)n(CCF)c1=O (stereo partly shown) [Ta-4F] is 9.2

The reported human thymidine kinase 1 (hTK1) (Homo sapiens) Pi % (phosphorylation percentage) of Cc1cn([C@H]2CC(O)[C@@H](CO)O2)c(=O)n(Cc2cn(Cc3cccc(Br)c3)nn2)c1=O (stereo partly shown) is 51.9

All values here come from patent US7928210B2.
